- System: PSEUDOMONAS CEPACIA 296I
- Assay Method Text: In vitro antibacterial activity, MIC, BHI agar dilution
- Type: cell-based
- Test Context: P. cepacia 296I, unit assumed
Readout Kind: MIC (µg/mL)
The answer is to be given in µg/mL; state only the numeric part.

{"Molecule": "CC[C@H]1OC(=O)[C@H](C)C(=O)[C@H](C)[C@@H](O[C@@H]2O[C@H](C)C[C@H](N(C)C)[C@H]2O)[C@](C)(OC)C[C@@H](C)C2=NC[C@H](COC(=O)c3ccncc3)N3C(=O)O[C@@]1(C)[C@H]3[C@H]2C", "MIC [µg/mL]": 100}

MIC lookup needed for CC[C@H]1OC(=O)[C@H](C)C(=O)[C@H](C)[C@@H](O[C@@H]2O[C@H](C)C[C@H](N(C)C)[C@H]2O)[C@](C)(OC)C[C@@H](C)C2=NC(COCc3ccccc3)C(COCc3ccccc3)N3C(=O)O[C@@]1(C)[C@H]3[C@H]2C (stereo partly drawn) , thanks.
25

Given CC[C@H]1OC(=O)[C@H](C)C(=O)[C@H](C)[C@@H](O[C@@H]2O[C@H](C)C[C@H](N(C)C)[C@H]2O)[C@](C)(OC)C[C@@H](C)C2=N[C@H](COCc3cccc(Cl)c3)CN3C(=O)O[C@@]1(C)[C@H]3[C@H]2C , state its recorded MIC.
100

Given the molecule CC[C@H]1OC(=O)[C@H](C)C(=O)[C@H](C)[C@@H](O[C@@H]2O[C@H](C)C[C@H](N(C)C)[C@H]2O)[C@](C)(OC)C[C@@H](C)C2=NCC(COC(=O)c3ccccc3)N3C(=O)O[C@@]1(C)[C@H]3[C@H]2C (stereo partly drawn) , what is its reported MIC?
25

----------
- Test system: STAPHYLOCOCCUS EPIDERMIDIS 3519
- Type: cell-based
- Test Context: S. epidermidis 3519; BHI agar; unit assumed
Each record here notes measured MIC.
The answer is to be given in mg/L; state only the numeric part.

// known answers, use as guide
{"Compound": "CC[C@H]1OC(=O)[C@H](C)C(=O)[C@H](C)[C@@H](O[C@@H]2O[C@H](C)C[C@H](N(C)C)[C@H]2O)[C@](C)(OC)C[C@@H](C)C2=NCC(COC(=O)c3cc4ccccc4n3C)N3C(=O)O[C@@]1(C)[C@H]3[C@H]2C (stereo partly drawn)", "Observed Result": 0.2}
{"Compound": "CCOC(=O)CCN1CC2N=C3C(C)CC(C)(OC)C(OC4OC(C)CC(N(C)C)C4O)C(C)C(=O)C(C)C(=O)OC(CC)C4(C)OC(=O)N(C2C1)C4C3C (stereo not drawn)", "Observed Result": 3.1}

Proceed to the following item.
Using the record for CCC1OC(=O)C(C)C(=O)C(C)C(OC2OC(C)CC(N(C)C)C2O)C(C)(OC)CC(C)C2=NCC(COCc3ccccc3F)N3C(=O)OC1(C)C3C2C (stereo not drawn) , report its MIC.
0.1

----------
- Tested on: STREPTOCOCCUS PYOGENES PIU 2548
- Assay Method Text: In vitro antibacterial activity, MIC, BHI agar dilution
- Assay type: cell-based
- Test Context: S. pyogenes PIU 2548, unit assumed
Parameter: MIC. Scope: all listed entries.
I only need the number, in µg/mL, no unit after it.

See these solved cases before continuing.
{"Molecule": "CC[C@H]1OC(=O)[C@H](C)C(=O)[C@H](C)[C@@H](O[C@@H]2O[C@H](C)C[C@H](N(C)C)[C@H]2O)[C@](C)(OC)C[C@@H](C)C2=NCC(CNCc3ccccc3)N3C(=O)O[C@@]1(C)[C@H]3[C@H]2C (stereo partly drawn)", "MIC / µg/mL": 0.78}
{"Molecule": "CC[C@H]1OC(=O)[C@H](C)C(=O)[C@H](C)[C@@H](O[C@@H]2O[C@H](C)C[C@H](N(C)C)[C@H]2O)[C@](C)(OC)C[C@@H](C)C2=NCC(COC(=O)c3ccnc4ccccc34)N3C(=O)O[C@@]1(C)[C@H]3[C@H]2C (stereo partly drawn)", "MIC / µg/mL": 0.2}

Return reported MIC; argument: CC[C@H]1OC(=O)[C@H](C)C(=O)[C@H](C)[C@@H](O[C@@H]2O[C@H](C)C[C@H](N(C)C)[C@H]2O)[C@](C)(OC)C[C@@H](C)C2=N[C@H](COCc3ccccc3Br)CN3C(=O)O[C@@]1(C)[C@H]3[C@H]2C
0.05
